measurement.target: HLA-A*02:06
test.details: IEDB peptide-MHC binding, purified MHC/competitive/radioactivity; filed as Kd, often an IC50 or EC50 that approximates it; bounds were set here for any values at or beyond the usual limits of such assays
details: source organism: Vaccinia virus WR
outcome.measure: Kd (nM)
Unit nM implied. Number only.

Problem: For IMETIDPVYI , write its Kd.
Solution: 349

Problem: For WLKDSAIMVA , write its Kd.
Solution: 4840

Problem: For KLVETGFVI , write its Kd.
Solution: 200

Problem: For DVERLQMAGV , write its Kd.
Solution: 776

Problem: For PLSINVSGV , write its Kd.
Solution: 17900

Problem: For RILSEKRKDT , write its Kd.
Solution: 6860

Problem: For RQLTSNVDV , write its Kd.
Solution: 170

Problem: For SLIYYQNEVT , write its Kd.
Solution: 4310

----------
measurement.target: HLA-B*46:01
test.details: IEDB peptide-MHC binding, purified MHC/competitive/fluorescence; filed as Kd, often an IC50 or EC50 that approximates it; bounds were set here for any values at or beyond the usual limits of such assays
details: source organism: Mopeia Lassa virus reassortant 29
outcome.measure: pKd
Note on pKd: it is the negative log10 of concentration, concentration in mol/L.

Problem: For YSQESPQSY , write its pKd.
Solution: 6.07

----------
measurement.target: HLA-A*01:01
test.details: IEDB peptide-MHC binding, purified MHC/direct/fluorescence; filed as Kd, often an IC50 or EC50 that approximates it; bounds were set here for any values at or beyond the usual limits of such assays
details: source organism: Lyssavirus rabies
outcome.measure: Kd

Problem: Give the observed Kd of RQMKSGGRF for HLA-A*01:01.
Solution: ≥ 20 µM

----------
measurement.target: HLA-A*24:02
test.details: IEDB peptide-MHC binding, purified MHC/competitive/fluorescence; filed as Kd, often an IC50 or EC50 that approximates it; bounds were set here for any values at or beyond the usual limits of such assays
details: source organism: Listeria monocytogenes J0161
outcome.measure: pKd
Note on pKd: it is the negative log10 of concentration, concentration in mol/L.

Problem: Give the observed pKd of YYVWMVQFF for HLA-A*24:02.
Solution: 9.70

----------
measurement.target: HLA-C*03:03
test.details: IEDB peptide-MHC binding, purified MHC/direct/fluorescence; filed as Kd, often an IC50 or EC50 that approximates it; bounds were set here for any values at or beyond the usual limits of such assays
details: source organism: Yersinia pestis Nepal516
outcome.measure: pKd
Note on pKd: it is the negative log10 of concentration, concentration in mol/L.

1) MLMAASRAL = 8.70

Consider the record given below.
Problem: For FAFKLSFAI , write its pKd.
Solution: 8.40

----------
measurement.target: HLA-B*58:01
test.details: IEDB peptide-MHC binding, purified MHC/direct/fluorescence; filed as Kd, often an IC50 or EC50 that approximates it; bounds were set here for any values at or beyond the usual limits of such assays
details: source organism: Ebola virus - Eckron (Zaire, 1976)
outcome.measure: pKd
Note on pKd: it is the negative log10 of concentration, concentration in mol/L.

Problem: For WLQKIPLQW , write its pKd.
Solution: 6.16

----------
measurement.target: HLA-A*33:01
test.details: IEDB peptide-MHC binding, purified MHC/competitive/radioactivity; filed as Kd, often an IC50 or EC50 that approximates it; bounds were set here for any values at or beyond the usual limits of such assays
details: source organism: Mammarenavirus mopeiaense
outcome.measure: pKd
Note on pKd: it is the negative log10 of concentration, concentration in mol/L.

Problem: Give the observed pKd of KCFGNTAIAK for HLA-A*33:01.
Solution: 5.47
